# pKi per entry
Biological target: STAT6 protein (Homo sapiens, UniProt P42226)
Sequence (P42226 whole entry): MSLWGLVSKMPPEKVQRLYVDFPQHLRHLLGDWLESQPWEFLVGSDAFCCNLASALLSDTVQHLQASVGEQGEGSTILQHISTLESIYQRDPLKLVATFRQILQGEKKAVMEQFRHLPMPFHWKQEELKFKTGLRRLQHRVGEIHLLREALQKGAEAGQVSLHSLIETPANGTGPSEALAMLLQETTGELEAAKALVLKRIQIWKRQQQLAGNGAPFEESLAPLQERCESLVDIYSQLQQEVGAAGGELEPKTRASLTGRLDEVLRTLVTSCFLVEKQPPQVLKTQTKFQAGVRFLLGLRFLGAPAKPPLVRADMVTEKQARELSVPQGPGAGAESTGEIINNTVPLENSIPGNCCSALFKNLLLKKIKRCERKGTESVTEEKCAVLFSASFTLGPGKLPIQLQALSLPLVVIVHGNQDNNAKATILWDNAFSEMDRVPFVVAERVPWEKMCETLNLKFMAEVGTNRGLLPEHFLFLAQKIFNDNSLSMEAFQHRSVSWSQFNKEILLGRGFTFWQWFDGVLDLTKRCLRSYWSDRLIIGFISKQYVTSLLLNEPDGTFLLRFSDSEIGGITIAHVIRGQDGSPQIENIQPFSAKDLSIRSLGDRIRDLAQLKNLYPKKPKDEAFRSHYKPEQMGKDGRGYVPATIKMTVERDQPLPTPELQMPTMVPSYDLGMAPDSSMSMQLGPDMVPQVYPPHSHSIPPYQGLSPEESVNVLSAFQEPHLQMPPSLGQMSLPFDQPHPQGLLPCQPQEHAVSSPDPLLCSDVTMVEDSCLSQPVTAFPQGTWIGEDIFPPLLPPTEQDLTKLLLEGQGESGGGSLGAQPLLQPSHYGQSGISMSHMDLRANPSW
Assay: Fluorescence polarization (FP) binding assay, STAT6
Settings: FP competition, 5 nM fluorescein-labeled tracer, 200 nM protein, PBS pH7.4; read-out: Binding STAT6
pKi: −log10 of the molar value.

>  <compound>
CC(C)(C)[C@H](NC(=O)c1cc2cc(C(F)(F)P(=O)(O)O)ccc2s1)C(=O)N1CCC[C@H]1C(=O)N1CCc2ccc(Cl)cc2C1

>  <targetOrSystem>
STAT6 protein (Homo sapiens, UniProt P42226)

>  <result>
5.00 to 6.00

$$$$
>  <compound>
Cc1ccc(C2CN(C(=O)[C@@H]3Cc4ccccc4CN3C(=O)[C@@H](NC(=O)c3cc4cc(C(F)(F)P(=O)(O)O)ccc4s3)C(C)(C)C)CCO2)c(C)c1 (stereo partly shown)

>  <targetOrSystem>
STAT6 protein (Homo sapiens, UniProt P42226)

>  <result>
5.00 to 6.00

$$$$
>  <compound>
O=C(NC1(C(=O)N2CCC[C@H]2C(=O)N2CCO[C@@H](c3ccccc3)C2)CCC1)c1cc2cc(C(F)(F)P(=O)(O)O)ccc2s1

>  <targetOrSystem>
STAT6 protein (Homo sapiens, UniProt P42226)

>  <result>
< 5.00

$$$$
>  <compound>
CC(C)(C)[C@H](NC(=O)c1cc2cc(C(F)(F)P(=O)(O)O)ccc2s1)C(=O)N1Cc2ccccc2C[C@H]1C(=O)N1CCCOC(c2ccccc2)C1 (stereo partly shown)

>  <targetOrSystem>
STAT6 protein (Homo sapiens, UniProt P42226)

>  <result>
6.00 to 7.00

$$$$

QUERY: pKi of CC(C)(C)[C@H](NC(=O)c1cc2cc(C(F)(F)P(=O)(O)O)ccc2s1)C(=O)N1Cc2ccccc2CC1C(=O)Nc1ncc(-c2ccccc2)s1 (stereo partly shown) on STAT6 protein (Homo sapiens, UniProt P42226)?
RESULT: 5.00 to 6.00

QUERY: pKi of Cc1ccc(C2CN(C(=O)[C@@H]3CCCN3C(=O)[C@@H](NC(=O)c3cc4cc(C(F)(F)P(=O)(O)O)ccc4s3)C(C)(C)C)CCO2)c(C)c1 (stereo partly shown) on STAT6 protein (Homo sapiens, UniProt P42226)?
RESULT: 5.00 to 6.00

QUERY: pKi of "CC(=O)N1CC[C@H]2CC[C@@H](C(=O)N3CCc4c(F)cccc4C3)N2C(=O)[C@@H](NC(=O)c2cc3cc(C(F)(F)P(=O)(O)O)ccc3[nH]2)C1" on STAT6 protein (Homo sapiens, UniProt P42226)?
RESULT: 5.00 to 6.00

QUERY: pKi of CC(=O)N1CC[C@H]2CC[C@@H](C(=O)N3CCC(C)(c4ccccc4)C3)N2C(=O)[C@@H](NC(=O)c2cc3cc(C(F)(F)P(=O)(O)O)ccc3s2)C1 (stereo partly shown) on STAT6 protein (Homo sapiens, UniProt P42226)?
RESULT: < 5.00

QUERY: pKi of "Cc1cccc(C[C@H](NC(=O)c2cc3cc(C(F)(F)P(=O)(O)O)ccc3s2)C(=O)N2CCC[C@H]2C(=O)N2CCO[C@H](c3ccccc3)C2)c1" on STAT6 protein (Homo sapiens, UniProt P42226)?
RESULT: 6.00 to 7.00

QUERY: pKi of "CCOC(=O)CO[C@H]1C[C@@H](C(=O)N(CCC(=O)N(C)C)c2ccc(Br)cc2)N(C(=O)[C@@H](NC(=O)c2cc3cc(C(F)(F)P(=O)(O)O)ccc3s2)C(C)(C)C)C1" on STAT6 protein (Homo sapiens, UniProt P42226)?
RESULT: 6.00 to 7.00

QUERY: pKi of CC(=O)N1CC[C@H]2CC[C@@H](C(=O)N3CCC(C(N)=O)(C(F)(F)F)C3)N2C(=O)[C@@H](NC(=O)c2cc3cc(C(F)(F)P(=O)(O)O)ccc3s2)C1 (stereo partly shown) on STAT6 protein (Homo sapiens, UniProt P42226)?
RESULT: < 5.00

QUERY: pKi of "CC(C)(C)[C@H](NC(=O)c1cc2cc(C(F)(F)P(=O)(O)O)ccc2s1)C(=O)N1C[C@H](OCC(=O)O)C[C@H]1C(=O)N(CCC(=O)O)c1ccc(Br)cc1" on STAT6 protein (Homo sapiens, UniProt P42226)?
RESULT: 6.00 to 7.00

QUERY: pKi of CC(C)(C)[C@H](NC(=O)c1cc2cc(C(F)(F)P(=O)(O)O)ccc2s1)C(=O)N1Cc2ccccc2C[C@H]1C(=O)N1CCOC(c2nccs2)C1 (stereo partly shown) on STAT6 protein (Homo sapiens, UniProt P42226)?
RESULT: > 7.00

QUERY: pKi of "CC(=O)N1CC[C@H]2CC[C@@H](C(=O)N3Cc4ccc(Cl)cc4C3)N2C(=O)[C@@H](NC(=O)c2cc3cc(C(F)(F)P(=O)(O)O)ccc3[nH]2)C1" on STAT6 protein (Homo sapiens, UniProt P42226)?
RESULT: < 5.00

QUERY: pKi of "CC(C)(C)[C@H](NC(=O)c1cc2cc(C(F)(F)P(=O)(O)O)ccc2[nH]1)C(=O)N1CCC[C@H]1C(=O)N[C@@H]1C[C@H]1c1ccccc1" on STAT6 protein (Homo sapiens, UniProt P42226)?
RESULT: 5.00 to 6.00

QUERY: pKi of "CC(=O)N1C[C@@H]2CCN(C(=O)[C@@H]3CCCN3C(=O)[C@@H](NC(=O)c3cc4cc(C(F)(F)P(=O)(O)O)ccc4s3)C(C)(C)C)[C@@H]2C1" on STAT6 protein (Homo sapiens, UniProt P42226)?
RESULT: < 5.00
